- Type: in vitro ADME
- details: simulated gi fluid, 1 µM, pH 6.7
- Experimental: This assay was used to assess the stability of a conjugate in a small intestine. Phosphate buffer was prepared by dissolving 0.42 g of sodium hydroxide pellets and 3.95 g of monobasic sodium phosphate monohydrate and 6.19 g of sodium chloride in ultrapure water (MilliQ®, Millipore Sigma, Darmstadt, Germany). The pH was adjusted to 6.7 using aq. HCl and aq. […] Test compounds were dissolved in DMSO stock to 1 mM. […] The resulting samples were analyzed by LCMS to determine degradation rates.
Where a name gives a salt, the structure may show the parent alone.
attribute measured: Assay 2- FaSSIF Stability: % Remaining at 4 hr (%)
The response must be a number in % with no trailing unit.

Sample records with Assay 2- FaSSIF Stability: % Remaining at 4 hr:
[
  {
    "molecule": "C#CC[N+](C)(C)CC(=O)O[C@H]1CO[C@H]2[C@@H]1OC[C@H]2O.O=C([O-])C(F)(F)F",
    "number": 28.06
  },
  {
    "molecule": "C#CC[N+](C)(C)CCO[C@@H]1O[C@H](COC(=O)CCC)[C@@H](OC(=O)CCC)[C@H](OC(=O)CCC)[C@H]1OC(=O)CCC.[I-]",
    "number": 30.79
  },
  {
    "molecule": "C#CC[N+](C)(C)CC(=O)O[C@@H]1O[C@H](COC(C)=O)[C@@H](OC(C)=O)[C@H](OC(C)=O)[C@H]1OC(C)=O [Compound 303, Trifluoroacetate]",
    "number": 0.03
  },
  {
    "molecule": "C#CC[N+](C)(C)CCO[C@@H]1OC[C@@H](OC(C)=O)[C@H](OC(C)=O)[C@H]1OC(C)=O.[I-]",
    "number": 113.28
  },
  {
    "molecule": "Br.C#CC[N+](C)(C)CC(=O)O[C@@H]1CO[C@H]2[C@@H]1OC[C@@H]2O",
    "number": 62.73
  },
  {
    "molecule": "CC(=O)OC[C@H]1O[C@@H](OCC[N+](C)(C)C2CC2)[C@H](OC(C)=O)[C@@H](OC(C)=O)[C@@H]1OC(C)=O.[I-]",
    "number": 99.34
  },
  {
    "molecule": "C#CC[N+](C)(C)CCO[C@H]1CO[C@H]2[C@@H]1OC[C@H]2O [Compound 74, trifluoroacetate]",
    "number": 121.56
  }
]

# ---- query molecule ----
// sample C#CC[N+](C)(C)CC(=O)OC[C@H]1OC(OC(C)=O)[C@H](OC(C)=O)[C@@H](OC(C)=O)[C@@H]1OC(C)=O.O=C([O-])C(F)(F)F (some centres unmarked) , its Assay 2- FaSSIF Stability: % Remaining at 4 hr was 13.44
